Assay system: Tyrosine-protein phosphatase non-receptor type 22 (Homo sapiens)
Test: LYP phosphatase inhibitor potency, dose response, biochemical, pCAP substrate, fluorescence intensity (AID 435027)
pIC50: −log10 of the molar value.
Measured parameter: pIC50

[a] N=C(NN=Cc1ccc2c(c1)OCO2)Sc1cc(O)n(-c2ccc(C(=O)O)cc2)c1O
[b] COC1=CC=CC(/C=N/NC(=O)c2cc3cc([N+](=O)[O-])ccc3s2)C1=O (stereo not given)
input: Please tell me which of the two, a or b , has the higher reported pIC50 value. Answer by stating the label of the chosen item.
output: a

----------
The entries below are paired with their reported IC50.
Assay system: Tyrosine-protein phosphatase non-receptor type 22 (Homo sapiens, UniProt Q9Y2R2)
Sequence (Q9Y2R2 whole entry): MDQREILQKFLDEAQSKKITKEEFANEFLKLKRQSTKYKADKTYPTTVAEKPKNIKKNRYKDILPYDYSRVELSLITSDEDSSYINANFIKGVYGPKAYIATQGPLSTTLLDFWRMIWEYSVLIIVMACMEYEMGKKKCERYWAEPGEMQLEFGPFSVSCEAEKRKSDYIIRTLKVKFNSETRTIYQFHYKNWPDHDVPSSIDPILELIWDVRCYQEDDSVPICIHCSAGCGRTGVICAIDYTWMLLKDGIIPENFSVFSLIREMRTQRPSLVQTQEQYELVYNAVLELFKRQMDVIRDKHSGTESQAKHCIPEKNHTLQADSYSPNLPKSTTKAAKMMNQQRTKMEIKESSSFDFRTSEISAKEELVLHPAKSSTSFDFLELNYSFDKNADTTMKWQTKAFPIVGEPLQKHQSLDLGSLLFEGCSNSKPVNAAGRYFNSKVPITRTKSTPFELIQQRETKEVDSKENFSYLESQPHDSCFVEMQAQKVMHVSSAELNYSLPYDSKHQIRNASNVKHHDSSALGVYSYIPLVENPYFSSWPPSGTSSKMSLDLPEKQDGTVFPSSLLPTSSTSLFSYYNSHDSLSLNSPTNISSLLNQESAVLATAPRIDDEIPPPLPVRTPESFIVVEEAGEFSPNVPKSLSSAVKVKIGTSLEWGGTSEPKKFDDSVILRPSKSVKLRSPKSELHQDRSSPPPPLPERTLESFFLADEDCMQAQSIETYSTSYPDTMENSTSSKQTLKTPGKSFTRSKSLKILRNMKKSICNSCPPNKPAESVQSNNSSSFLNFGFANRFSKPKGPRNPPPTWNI
Test: LYP phosphatase inhibitor potency, dose response, biochemical, pCAP substrate, fluorescence intensity (AID 435027)

Worked set:
                                   compound                              assay_system  value_measured
0  Cc1ccc(NN=C2C(=O)N(CN3CCOCC3)c3ccccc32)cc1  Tyrosine-protein phosphatase non-receptor type 22 (Homo sapiens, UniProt Q9Y2R2)       > 79.4 µM
1  CCOC(=O)NC(=O)C(C=Nc1ccc(C)cc1)C(=O)NC(=O)OCC  Tyrosine-protein phosphatase non-receptor type 22 (Homo sapiens, UniProt Q9Y2R2)       > 79.4 µM

Lab book: IC50 of O=C1C([N+](=O)[O-])=CC(Br)=CC1/C=N/n1cnnc1 (stereo not drawn) noted as > 79.4 µM
